Origin of measurements: paper PMC6522510

System: M07e
Assay: cells
Set-up: species or system AML cell lines (8); Secondary HTS, 10-point dose-response in triplicate, Cell Titer Glo viability, four-parameter fit EC50
Conditions: M-07e, 72 h, read-out: M07e
Each entry below carries its recorded EC50.
readout.label: EC50

1) Cc1nc(C(=O)NCC(=O)O)c(O)c2ccc(Oc3ccccc3)cc12 [FG-4592] = > 10 µM
2) Cc1cc(Cl)ccc1OCCCC(=O)NO [SJ000784245, DROXINOSTAT] = > 10 µM
3) C=CCn1c(=O)c2cnc(Nc3ccc(N4CCN(C)CC4)cc3)nc2n1-c1cccc(C(C)(C)O)n1 [MK-1775] = > 10 µM
4) COc1ccc(C[C@H](NC(=O)[C@H](C)NC(=O)CN2CCOCC2)C(=O)N[C@@H](Cc2ccccc2)C(=O)C2(C)CO2)cc1 (stereo in doubt) [SJ000834147, ONX-0914] = 0.0789 µM
5) O=c1oc2c(O)c(O)cc3c(=O)oc4c(O)c(O)cc1c4c23 [ELLAGIC ACID] = > 10 µM
6) O=C(O)C(Cc1c[nH]c2ccccc12)N1C(=O)c2ccccc2C1=O (stereo not drawn) [SJ000784279, RG108] = > 10 µM
7) C=CC(=O)N1CCC[C@@H](n2nc(-c3ccc(Oc4ccccc4)cc3)c3c(N)ncnc32)C1 [Ibrutinib] = > 10 µM
8) CCc1cc2c(cc1N1CCC(N3CCOCC3)CC1)C(C)(C)c1[nH]c3cc(C#N)ccc3c1C2=O [CH5424802] = > 10 µM
9) Cn1cc(CNCC2CCN(c3ncc(C(=O)NO)cn3)CC2)c2ccccc21 [Quisinostat] = 0.0042 µM
10) COc1cc(N2CCC(N3CCN(C)CC3)CC2)ccc1Nc1ncc(Cl)c(Nc2ccccc2S(=O)(=O)C(C)C)n1 [SJ000565231, NVP-TAE684] = 3.8 µM
11) S=c1[nH]cnc2nc[nH]c12 [MERCAPTOPURINE] = > 10 µM
12) Nc1ncn([C@H]2C[C@H](O)[C@@H](CO)O2)c(=O)n1 [DECITABINE] = > 10 µM
13) Cc1cc2nc(NCCCO)n(CC(=O)c3cc(C(C)(C)C)c(O)c(C(C)(C)C)c3)c2cc1C [SJ000786025, CID-2858522] = > 10 µM
14) COc1cc(N2CCC(N3CCN(C)CC3)CC2)ccc1Nc1ncnc(Nc2ccccc2S(=O)(=O)C(C)C)n1 [ASP3026] = > 10 µM
15) COc1cc(OC)c(/C=C/S(=O)(=O)Cc2ccc(OC)c(NCC(=O)O)c2)c(OC)c1 [rigosertib] = > 10 µM

###

Tested on: CHRF288-11
Design: species or system AML cell lines (8); Primary HTS, single concentration about 10 uM, Cell Titer Glo viability; log10 luminescence, per cent inhibition relative to cycloheximide control
Conditions: 72 h, relative to cycloheximide control, log10 luminescence; inhibitor
Each entry below carries its recorded CHRF288-11 %inh.
readout.label: CHRF288-11 %inh

1) Cc1cccc(-c2n[nH]cc2-c2ccc3ncccc3n2)n1 = 4.75%
2) CS(=O)(=O)Nc1cccc(-c2ccc3c(NC(=O)C4CC4)n[nH]c3c2)c1 = 25.27%
3) CC(=O)OC/C=C(C)/C=C/C=C(C)/C=C/C1=C(C)CCCC1(C)C [SJ000285933-3, RETINYL ACETATE] = 13.53%
4) O=[N+]([O-])c1ccc2c(c1)C(c1ccccc1Cl)=Nc1cn[nH]c1N2 = -0.2746%
5) CS(=O)(=O)N1CCC(n2c(=O)c(Oc3ccc(F)cc3F)cc3cnc(NC4CCOCC4)nc32)CC1 = -0.8918%
6) COc1cccc(C2=C(c3cn(C)c4ccc(Cl)cc34)C(=O)NC2=O)c1 = -4.42%

###

Test system: CMK
Set-up: species or system AML cell lines (8); Primary HTS, single concentration about 10 uM, Cell Titer Glo viability; log10 luminescence, per cent inhibition relative to cycloheximide control
Conditions: 72 h, relative to cycloheximide control, log10 luminescence; inhibitor
Each entry below carries its recorded CMK %inh.
readout.label: CMK %inh

1. CO[C@H]1O[C@@H]2O[C@@]3(C)CC[C@H]4[C@H](C)CC[C@@H]([C@H]1C)[C@@]24OO3 = 0.2838%
2. CCn1c(-c2nonc2N)nc2c(C#CCN)ncc(OCCCN)c21 = 3.187%
3. CC(C)(Oc1ccc(Cl)cc1)C(=O)O = -0.9561%

###

Each entry below carries its recorded EC50.
System: ML-2
Test: cells
Design: species or system AML cell lines (8); Secondary HTS, 10-point dose-response in triplicate, Cell Titer Glo viability, four-parameter fit EC50
Details: Homo sapiens, ML-2, 72 h, read-out: ML-2
readout.label: EC50

1) CC[C@H](C)C(=O)O[C@H]1CCC=C2C=C[C@H](C)[C@H](CC[C@@H]3C[C@@H](O)CC(=O)O3)[C@H]21 = > 10 µM
2) COc1ccc(Cn2ccc3ccc(C(=O)NO)cc32)cc1 = > 10 µM
3) CCOC(=O)c1ccc(C#Cc2ccc3c(c2)C(C)(C)CCS3)nc1 = > 10 µM
4) Cc1cc(Nc2cc(N3CCN(C)CC3)nc(/C=C/c3ccccc3)n2)n[nH]1 = > 10 µM
5) CCn1c(C(=O)N(C2CC2)C2CC2)cc2c3c(ncn3C)c(Nc3cc(C)n(C)n3)nc21 = > 10 µM
6) Cc1cc2nc(NCCCO)n(CC(=O)c3cc(C(C)(C)C)c(O)c(C(C)(C)C)c3)c2cc1C = > 10 µM

###

Each entry below carries its recorded CHRF288-11 %inh.
Tested on: CHRF288-11
Design: species or system AML cell lines (8); Primary HTS, single concentration about 10 uM, Cell Titer Glo viability; log10 luminescence, per cent inhibition relative to cycloheximide control
Conditions: 72 h, relative to cycloheximide control, log10 luminescence; inhibitor
readout.label: CHRF288-11 %inh (%)

1. O=C1CCc2cc(OCCCCc3nnnn3C3CCCCC3)ccc2N1 = -1.23
2. Cn1c(=O)c(Oc2ccc(F)cc2F)cc2cnc(NC3CCC(O)CC3)nc21 (stereo not drawn) = 5.265
3. O=C1NC(=NCCc2ccccn2)S/C1=C\c1ccc2ncccc2c1 = 5.232
4. O=C1NC(=NCCc2cccc(Cl)c2)S/C1=C\c1ccc2ncccc2c1 = 2.333
5. Cc1nnc(-c2cccc(-c3ccc(C(=O)NCC4CC4)cc3)c2)o1 = -4.251
6. O=C1NC(=N[C@H](CO)Cc2ccccc2)S/C1=C\c1ccc2ncccc2c1 = 7.52
7. CC1(OC(=O)C2CCCC2)C(=O)C=C2C=C(c3ccsc3)OC=C2C1=O (stereo not drawn) = 1.734
8. CCNC(=O)[C@@H]1CCCN2C(=O)CC[C@H](NC(=O)[C@H](Cc3ccc(OP(=O)(O)O)cc3)NC(C)=O)C(=O)N12 = -7.883
9. NC(CCC(=O)NOC(=O)c1ccccc1)C(=O)N1CCCC1 (stereo not drawn) = -3.643

###

System: CMK
Set-up: species or system AML cell lines (8); Primary HTS, single concentration about 10 uM, Cell Titer Glo viability; log10 luminescence, per cent inhibition relative to cycloheximide control
Settings: 72 h, relative to cycloheximide control, log10 luminescence; inhibitor
Structures can show the parent of a compound that is named as a salt.
readout.label: CMK %inh (%)

1) N#Cc1c(NC(=O)c2cccc3ccccc23)sc2c1CCCC2 = 122.9
2) OC(Cn1cncn1)(Cn1cncn1)c1ccc(F)cc1F = -0.02108
3) CNC(=O)Oc1cc(C)c(/C=C/c2cncc(C(=O)NC)c2)c(C)c1 = 8.893
4) Cn1cc(C2=C(c3c([S+](C)[O-])n(C)c4ccccc34)C(=O)NC2=O)c2ccccc21 (stereo not shown) = -2.072
5) O=C1NC(O)C(c2c[nH]c3ccccc23)=C1c1c[nH]c2ccccc12 (stereo not shown) = -1.548
6) Cc1ccc(/C=C2\CNC/C(=C\c3ccc(C)cc3)C2=O)cc1 [SJ000772404-1, NSC 632839 HYDROCHLORIDE] = 116.6
7) Cc1ccc2c(-c3ccnc(Nc4ccccc4)n3)c(-c3ccc(F)cc3)nn2n1 = 0.5232
8) Cn1cc(C2=C(c3cn(C)c4c([N+](=O)[O-])cccc34)C(=O)NC2=O)c2ccccc21 = 1.442
9) C[C@]12CCC(=O)C=C1[C@@H]1C[C@@H]1[C@H]1[C@@H]3[C@@H]4C[C@@H]4[C@@]4(CCC(=O)O4)[C@@]3(C)CC[C@@H]12 = 38.69
10) CS(=O)(=O)CCNCc1cc(-c2cc3c(Nc4ccc(OCc5cccc(F)c5)c(Cl)c4)ncnc3s2)cs1 = 4.188
11) COc1cc(N2CCN(C(C)C)CC2)ccc1Nc1nc(Nc2ccc(F)cc2C(=O)NC[C@@H](O)CO)c2cc[nH]c2n1 = -2.061
12) CCC1(C)CC(=O)NC1=O (stereo not shown) [SJ000285397-7, ETHOSUXIMIDE] = -1.781
13) CNCC#Cc1c(F)ccc2c1/C(=C/c1[nH]ccc1OC)C(=O)N2 = 104.6
